System: TK-10 renal
assay: NCI tumour cell line growth inhibition, 48 h
experimental readout: GI50

INSERT INTO results (molecule, experimental_readout, measured) VALUES
  ('CC(C)(C)c1[nH]nc2c1C(c1cc3ccccc3[nH]c1=O)Nc1cc(C(=O)OCc3ccccc3)ccc1N2 (stereo not given)', 'GI50', '3.83 µM'),
  ('O=C(Nc1ccc(Oc2cccc(F)c2)c(Cl)c1)c1cnccn1', 'GI50', '3.75 µM'),
  ('O1[As]2O[As]3O[As]1O[As](O2)O3', 'GI50', '2.31 µM'),
  ('N#CSCc1ccc(Cl)c(CSC#N)c1', 'GI50', '14.5 µM'),
  ('CCOC(=O)c1cc2c(n1Cc1cc(OC)c(OC)c(OC)c1)-c1oncc1CCC2', 'GI50', '64.9 µM'),
  ('COc1cc(/C=C/C(=O)c2ccc(F)cc2)ccc1OCCCN1CCN(CC(=O)Nc2ccc(Cl)cc2C(=O)c2ccccc2Cl)CC1', 'GI50', '10.4 µM'),
  ('CN(C)CC1CCC2=C(C1=O)C(c1ccc(Cl)c(Cl)c1)C1=C(CCC(CN(C)C)C1=O)O2 (stereo not given)', 'GI50', '0.7 µM'),
  ('C[CH2][Sn]([CH2]C)([O]C(=O)c1ccccc1F)[O][Sn]([CH2]C)([CH2]C)[O]C(=O)c1ccccc1F', 'GI50', '18 µM'),
  ('Cc1[nH]c(=O)nc(Nc2ccc(Cl)cc2)c1C(=O)N1CCN(CCO)CC1', 'GI50', '77.7 µM'),
  ('COC(=O)c1cc2ccccc2c2c3c(ccc12)OCO3', 'GI50', '43.8 µM');

###

Test system: SNB-75 CNS
assay: NCI tumour cell line growth inhibition, 48 h
Reported TGI by item:
experimental readout: TGI

INSERT INTO results (compound, experimental_readout, measured) VALUES
  ('O=c1oc2c(Cl)cc(Cl)cc2cc1C1=CSC2=NCCN12', 'TGI', '> 100 µM'),
  ('COc1ccc2nc3cc(Cl)ccc3c(SCC(=O)Nc3ccccc3-c3ccccc3NC(=O)CSc3c4ccc(Cl)cc4nc4ccc(OC)cc34)c2c1', 'TGI', '> 100 µM'),
  ('O=CN1CCN(C(=O)c2ccc(Cl)c(Cl)c2)C1=S', 'TGI', '32.3 µM'),
  ('Nc1c(C(=O)c2cccc(-c3cccnc3)c2)cnn1-c1ccc(F)cc1F', 'TGI', '> 25 µM'),
  ('CC1=C(C(=O)N[C@@H](CC(C)C)C(=O)O)N2C(=O)[C@@H](NC(=O)C(N)c3ccccc3)[C@H]2SC1 (stereo not given in full)', 'TGI', '> 100 µM'),
  ('CC1(C)CC2CC(CC(C)(C)C2=O)C1=O', 'TGI', '> 100 µM'),
  ('NC(=O)c1ccc(-c2nc(-c3ccc4c(c3)OCO4)c(-c3ccccn3)[nH]2)cc1', 'TGI', '> 90.8 µM'),
  ('COC(=O)CCC(NC(=O)OC(C)(C)C)C(=O)NC(Cc1ccc(NC(=O)CCCC(C)=O)cc1)C(=O)NC(CCC(=O)OC)C(=O)OC (stereo not given)', 'TGI', '> 100 µM'),
  ('COc1cnc2c(c1)C(=O)c1c-2n(CCCNC2=NCCS2)c(=O)c2cc(Cl)ccc12', 'TGI', '2.51 µM'),
  ('O=C(O)C(CS)NCc1c2ccccc2nc2ccccc12 (stereo not given)', 'TGI', '> 100 µM'),
  ('CC1=C(C)SC(=C2Sc3nc(O)[nH]c(=O)c3S2)S1', 'TGI', '> 100 µM'),
  ('CCOC(=O)c1cc2c(n1Cc1cc(OC)c(OC)c(OC)c1)-c1oncc1CCC2', 'TGI', '> 61.7 µM'),
  ('C=C1C[C@H](O)[C@H](Br)C(C)(C)C12CCC(C)(Cl)C(Br)C2 (stereo not given in full)', 'TGI', '11.2 µM'),
  ('O=[N+]([O-])c1ccc(N=Nc2ccc(O)c3ccccc23)cc1', 'TGI', '> 100 µM'),
  ('NS(=O)(=O)c1ccc(/C=C/c2ccc(O)cc2)cc1', 'TGI', '78.6 µM'),
  ('Cn1cccc1-c1cc(-c2ccc(Br)cc2)[nH]c(=O)c1C#N', 'TGI', '> 100 µM'),
  ('N#CNC(=NCCc1c[nH]c2ccccc12)Oc1ccccc1', 'TGI', '> 100 µM'),
  ('CCOP(=O)(OCC)OC1c2[nH]cc(C(=O)OCc3ccccc3)c2-c2cc(C(=O)OC)[nH]c2C1OC (stereo not given)', 'TGI', '56.2 µM'),
  ('CCOC(=O)c1nc2ccc(C(F)(F)F)cc2nc1Oc1ccc(C(=O)OC)cc1', 'TGI', '> 100 µM'),
  ('CC(=O)[O][Sn]([CH2]c1ccccc1)([CH2]c1ccccc1)[CH2]c1ccccc1', 'TGI', '> 5.68 µM');
